- Tested on: polymorphonuclear leucocytes (PMNL)
- Assay remarks: Test 2: Release of oxygen radicals from human PMNL
- Type: cell-based
- Conditions used: 10 μM, read-out: Test 2 residual activity (release of oxygen radicals), percent of control
Structures can show the parent of a compound that is named as a salt.
Response field label: string, one of t (activity at 10 µM strictly below 60%) or f.

Molecule	Target desc	Cat
C[C@@H](O)[C@@H]1CC(c2cc(C(C)(C)C)c(O)c(C(C)(C)C)c2)=NO1 (relative stereo)	polymorphonuclear leucocytes (PMNL)	f
CC(=O)C1CC(c2cc(C(C)(C)C)c(O)c(C(C)(C)C)c2)=NO1 (stereo not drawn)	polymorphonuclear leucocytes (PMNL)	f
CC(OC(=O)[C@@H](N)Cc1ccccc1)c1cc(-c2cc(C(C)(C)C)c(O)c(C(C)(C)C)c2)no1 (stereo partly drawn) [Example 70, hydrochloride]	polymorphonuclear leucocytes (PMNL)	t
CC(OC(=O)[C@@H](N)Cc1ccccc1)C1CC(c2cc(C(C)(C)C)c(O)c(C(C)(C)C)c2)=NO1 (stereo partly drawn) [Example 73, hydrochloride]	polymorphonuclear leucocytes (PMNL)	t

Turning now to a further record.
input: Here's an entry: CC(=O)c1cc(-c2cc(C(C)(C)C)c(O)c(C(C)(C)C)c2)no1 . Is its activity at 10 µM below 60%?
output: t
